# Assay method text: Human HepG2 cell viability assay in 384 well format
# Format: toxicity, cell-based
# Design: dose 125 nL, time 70.5 hour; concentration not given beside the values
# Experimental setup: HepG2 cells, read-out: Inhibition
So I've got a bunch of compounds here, and I need their cytotoxicity at 70.5 h values.
Express your answer in %, writing the number without its unit.

Query: cytotoxicity at 70.5 h; subject: COc1ccc2c(c1)nc1n2[C@@H](CNCc2ccccc2)COC1
10.1

Reported cytotoxicity at 70.5 h, compound Cc1ccccc1C(O)CNC(=O)Cc1ccc(F)cc1 (stereo not drawn) : ____
-2.44

Using the record for O=C(O)[C@]12CCCN(C3CCOC3)C[C@H]1CN(c1ncccn1)C2 (stereo partly drawn) , report its cytotoxicity at 70.5 h.
-2.93

What cytotoxicity at 70.5 h value was documented for this compound, CN(CC(=O)NCc1ccccn1)C1CCCN(c2cccnn2)C1 (stereo not drawn) ?
0.301

Param item = Cc1cc2cccc(NC(=O)N3CCC(N4CCSCC4)CC3)c2o1 ; retrieve measured cytotoxicity at 70.5 h.
-11

Please report the recorded cytotoxicity at 70.5 h for Cn1cc(NC(=O)Nc2cccc3cccnc23)ccc1=O .
53.3

Name the recorded cytotoxicity at 70.5 h for CCn1c(C2CCCN(Cc3cc(OC)cc(OC)c3)C2)nn(C)c1=O (stereo not drawn) .
-4.68

Tell me the measured cytotoxicity at 70.5 h of Cc1ncc(CN2CCOC(c3ccc(-c4ccccc4F)cn3)C2)s1 (stereo not drawn) , please.
49.2

Dear colleague, I am looking for the recorded cytotoxicity at 70.5 h of the following compound: O=C(CC(F)(F)F)N1CCc2onc(Cn3cccn3)c2C1
-13.4

Look up cytotoxicity at 70.5 h: Cc1nc(C(C)NC(=O)c2cn(Cc3ccc(Cl)cc3)nn2)n[nH]1 (stereo not drawn)
-1.77

Give the measured cytotoxicity at 70.5 h of COc1ccc(CN2CCSCC2)c(OC)c1 .
-6.31

Given the compound C=C(C)COc1ccccc1C(=O)N(C)C(C)c1c(C)n[nH]c1C (stereo not drawn) , what is its reported cytotoxicity at 70.5 h?
-2.31

Would you mind telling me what cytotoxicity at 70.5 h value was observed for O=C1CCCC2=C1C(c1ccc(Cl)cc1Cl)Nc1nonc1N2 (stereo not drawn) ?
-1.65

Can you share its cytotoxicity at 70.5 h? I mean this compound: N#Cc1ccc(N2CCCC3(CCN(c4cncnc4)C3=O)C2)nc1 (stereo not drawn)
7.49

Reported cytotoxicity at 70.5 h for COc1ccc(C(=O)N2CCOc3ccncc32)cc1 : what is it?
-1.92

I am curious: what cytotoxicity at 70.5 h value has been reported for O=C(NCCC(O)c1ccco1)c1ccco1 (stereo not drawn) ?
-5.28

Find the recorded cytotoxicity at 70.5 h belonging to COc1ccc(CCNCc2c(C)nn(C)c2N(C)C)cc1OC and report it.
-1.22

Which cytotoxicity at 70.5 h reading was recorded for the compound COCc1nc(C2CCN(Cc3nccn3C)CC2)no1 ?
-4.44

Which value of cytotoxicity at 70.5 h has been reported for Cc1cncc(C(=O)N2CC[C@@]3(C[C@H](NS(C)(=O)=O)CCO3)C2)c1 in the records?
-7.39

I have this compound here, Cc1ncc2c(c1CNC(=O)C1(C)CCCO1)CCNC2 (stereo not drawn) , and I need its recorded cytotoxicity at 70.5 h.
-7.21

Item Cc1nc(COC[C@@H]2CC[C@H]3[C@H](CCN3S(C)(=O)=O)O2)cs1 has what recorded cytotoxicity at 70.5 h?
-11.7

Fill blank: measured cytotoxicity at 70.5 h of the compound Cc1ccccc1CN(C)C(=O)c1ccoc1 is ____.
3.46

Value lookup for cytotoxicity at 70.5 h; key = Cn1cc(-c2nc(CN3CCOC(Cn4cncn4)C3)cs2)cn1 (stereo not drawn)
1.83

Could you share which cytotoxicity at 70.5 h value was measured for Cc1ccnc(NCc2ccccc2N2CCOCC2)n1 ?
-16.7

Given Cn1ccc(C(=O)NCc2ccc(Cn3ccnc3)cc2)cc1=O , state its recorded cytotoxicity at 70.5 h.
-1.16

Query (compound): O=C(Nc1ccc(I)cc1C(=O)NCCN1CCOCC1)c1cccs1 ; field requested: cytotoxicity at 70.5 h
11.1

What value of measured cytotoxicity at 70.5 h is listed for Cc1cccc(OC2CN(C(=O)C3CC(=O)N(C(C)(C)C)C3)C2)c1 (stereo not drawn) ?
-2.82

Which cytotoxicity at 70.5 h is reported for this compound? CC(=O)N1CCOC(CCc2cc(-c3c(C)noc3C)ncn2)C1 (stereo not drawn)
-0.21

Need cytotoxicity at 70.5 h of O=C(CCCn1cncn1)N1CCC2(CC1)[C@H](O)C[C@@H]2OCCO , thanks.
-6.43

Which cytotoxicity at 70.5 h value belongs to O=C(c1ccncc1)N1CCCN(Cc2nnc(C3CC3)o2)CC1 ?
-2.96

Reported cytotoxicity at 70.5 h for COc1cc(CN)c(OC)c2c1OCO2 : what is it?
-15.1

Report cytotoxicity at 70.5 h for O=C(NCCCN1CCC(OC2CCCCC2)CC1)C1CCCC1 please.
-0.377

Dear colleague, I am looking for the recorded cytotoxicity at 70.5 h of the following compound: O=c1c(NCCc2ccc(O)cc2)c(NCc2ccco2)c1=O
-4.28

Look at this compound and give its reported cytotoxicity at 70.5 h. Cc1ccc(F)cc1S(=O)(=O)N(C)CC(N)=O
-11.9

What measured cytotoxicity at 70.5 h goes with Cc1ccc(N2CC[C@H](OCC3CC3)[C@@H]2Cc2ccncc2)nn1 ?
-4.81

So what does the record say about cytotoxicity at 70.5 h for CC(C)(C)c1cc(NC(=O)CN(Cc2ccco2)Cc2cccs2)on1 ?
4.01

Given the entry CNS(=O)(=O)CC(=O)NCc1cc2c(s1)CCC(C)(C)C2 , report its measured cytotoxicity at 70.5 h.
-1.59

Using the record for O=C1CCc2cc(C(=O)NCc3ccc(-n4cncn4)nc3)ccc2N1 , report its cytotoxicity at 70.5 h.
-0.0283

Please look up its cytotoxicity at 70.5 h: COc1cccnc1NC(=O)COc1c(C)cccc1C
18.3

Fill in the blank: the reported cytotoxicity at 70.5 h of Cc1nc2c(c(N(C)C)n1)CCN(C(=O)c1ccc(N)nc1)C2 is ____.
-7.14

Given the entry CC(=O)N1CCN(CC(=O)NCCCN(C)c2ccccc2)CC1 , report its measured cytotoxicity at 70.5 h.
-7.53

Could you share which cytotoxicity at 70.5 h value was measured for O=S1(=O)COCCN1Cc1ccc(F)c(C(F)(F)F)c1 ?
-10.2

Give its cytotoxicity at 70.5 h value. Item: Cn1cnc(-c2nc(C(=O)NCC3CCCO3)c3ccccn23)c1 (stereo not drawn)
-0.333

Which cytotoxicity at 70.5 h value belongs to Cc1noc(CN(CCc2cccs2)Cc2cccc(C#N)c2)n1 ?
0.848

Using the record for COc1cccc(OCCNS(=O)(=O)Cc2ccccc2)c1 , report its cytotoxicity at 70.5 h.
19.4

Could you tell me which cytotoxicity at 70.5 h is on file for CN(C(=O)CNCCn1cccn1)C1(C#N)CCCCC1 ?
-3.85

// lookup cytotoxicity at 70.5 h for CCOCc1ccccc1NC(=O)NC1CCN(CC(F)(F)F)C1 (stereo not drawn)
-6.42

Which cytotoxicity at 70.5 h value belongs to Cc1nc(C(C)C)sc1C(=O)NCCNc1ncccn1 ?
-10.9
